Data provenance is PubChem BioAssay AID652054.

max response, negative = inhibition values, listed per item
target: D(3) dopamine receptor (Homo sapiens) (UniProt P35462)
Sequence (P35462 whole entry, looked up): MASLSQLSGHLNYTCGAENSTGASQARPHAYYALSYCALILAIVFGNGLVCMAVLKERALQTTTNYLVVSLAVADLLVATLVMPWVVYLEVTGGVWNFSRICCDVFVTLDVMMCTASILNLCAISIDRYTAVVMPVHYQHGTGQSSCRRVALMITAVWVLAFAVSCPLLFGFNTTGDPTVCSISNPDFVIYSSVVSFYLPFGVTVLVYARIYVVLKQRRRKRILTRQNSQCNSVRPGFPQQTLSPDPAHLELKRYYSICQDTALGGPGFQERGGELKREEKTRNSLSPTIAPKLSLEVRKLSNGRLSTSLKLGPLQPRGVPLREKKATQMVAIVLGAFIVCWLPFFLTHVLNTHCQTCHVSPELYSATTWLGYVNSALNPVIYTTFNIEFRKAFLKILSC
experiment_description: qHTS of D3 Dopamine Receptor Antagonist: qHTS; further: on the % scale 0 is the no-effect control and ±100 the full control effect
setup_conditions: D3R cells, DiscoveRx beta-arrestin luminescence, antagonist mode; stronger effect = lower value
Description: D3 DARs represent a very important target for the treatment of several neuropsychiatric disorders. Indeed, one of the most promising therapeutic applications for the D3 DAR is in the area of addiction and related disorders. […] Freshly passaged cells are plated in 1536 well white, solid bottom plates at a density of 1500 cells/well in 3microl of complete media. […] Following incubation, luminescence is measured on a ViewLux CCD-based luminometer reader using a 20 sec exposure time.
In all, about 360,000 compounds went through this assay and about 9,100 (2.5%) were called active. Not shown: some 4% with an inconclusive outcome. This excerpt belongs to a sample that is enriched for actives.
Express your answer in %, writing the number without its unit.

Example cases with answers are listed next.
compound	units_symbol	max response, negative = inhibition
O=C(NC(=S)N1CCc2ccccc21)c1ccco1	%	-1.16
Cc1ccc(Cl)c(OCC(=O)N2CCc3ccccc3C2)c1	%	1.13
Cc1ccc(CN2CCN(Cc3cn(C)nc3-c3ccccc3)CC2CCO)o1 (stereo unspecified)	%	3.14
CC(C)(C)S(=O)N1Cc2cc(C(=O)NCCCN3CCOCC3)nc(-c3cccc(-c4cc5ccccc5o4)c3)c2[C@H]1CCO (stereo partly specified)	%	9.3
O=C(CN1CCOc2ccccc21)N1CCC(Cc2ccccc2)CC1	%	0

CNc1cncc(-c2cccc(C(=O)N3CCOCC3)c2)n1 yielded max response, negative = inhibition of 13.3

max response, negative = inhibition in this record for O=C(CSc1cccc[n+]1[O-])c1ccc(Cl)cc1 : -3.66

response.value for O=C(/C=C\c1ccc2c(c1)OCO2)NC1(C(=O)Nc2ccc3c(c2)OCCO3)CCCCC1 (field: max response, negative = inhibition) = -59.6

Recorded max response, negative = inhibition (compound COc1ccccc1C(=O)NC(CCSC)C(=O)N1CCN(C/C=C/c2ccccc2)CC1 (stereo unspecified) ): -14

Measured max response, negative = inhibition of COC(=O)[C@]12CCCCC=C1N(Cc1cccc3ccccc13)C(=O)[C@H](CC(=O)N1CCOCC1)C2 : -10.3

Lab note: measured max response, negative = inhibition of OC(COc1ccc(F)cc1Cl)CN1CCc2ccccc2C1 (stereo unspecified) was -83.8

Entry COc1ccc(OC)c(C(O)c2ncc(-c3cccc(C(F)(F)F)c3)[nH]2)c1 (stereo unspecified) ; max response, negative = inhibition = -26

// max response, negative = inhibition lookup, compound = O=C(Cn1cc(-c2nnnn2-c2ccc(Cl)cc2)c(=O)c2ccccc21)c1ccccc1 , result: 36.4

Lookup result for Cc1ccc(CN2CCN(Cc3ccc(OCCO)cc3)CC2CCO)o1 (stereo unspecified) ; measured max response, negative = inhibition: 4.23

Reported max response, negative = inhibition ( COc1cccc(/C=C/C(=O)Nc2ccc3c(c2)OCCO3)c1 ) = -6.81

// max response, negative = inhibition lookup, compound = COCCN1CCN(C(=O)c2cc(COc3ccc(F)cc3Cl)on2)CC1 , result: -9.58

Record Cc1ccc(C)c(N2CCN(S(=O)(=O)c3ccc4c(c3)oc(=O)n4C)CC2)c1 . Reported max response, negative = inhibition: 19.9

Entry under test: CSCCC(c1nnnn1Cc1ccccc1)N1CCN(C/C=C/c2ccccc2)CC1 (stereo unspecified) . Its max response, negative = inhibition was -87.8

For reference, reported max response, negative = inhibition for COc1ccc2c(c1)CCCO[C@]21O[C@H](CCO)C[C@H](O)[C@H]1O stands at -5.1

The compound identified as O=C1NC[C@H](Cc2ccc(O)cc2)N(C[C@H]2CCCN2C[C@H](Cc2ccccc2)N2C[C@H](Cc3ccccc3)N(CCc3ccccc3)C(=O)C2=O)C1=O registered its max response, negative = inhibition at -27.9

The compound Cc1ccc(CN2CCN(c3ccccc3Cl)CC2)o1 showed max response, negative = inhibition equal to -75.6
